target: T1, human MSLN-hFc protein (Acro, Cat. No. MSN-H5253) (human, UniProt Q13421 296-580); assay: ELISA on coated antigen, antibody 0.1 nM
T1 construct: the method names the coated protein as human MSLN-hFc (Acro); also called human MSLN full-length protein
T1 sequence (Q13421 other isoform, or with tags, fused parts or gaps limits assumed): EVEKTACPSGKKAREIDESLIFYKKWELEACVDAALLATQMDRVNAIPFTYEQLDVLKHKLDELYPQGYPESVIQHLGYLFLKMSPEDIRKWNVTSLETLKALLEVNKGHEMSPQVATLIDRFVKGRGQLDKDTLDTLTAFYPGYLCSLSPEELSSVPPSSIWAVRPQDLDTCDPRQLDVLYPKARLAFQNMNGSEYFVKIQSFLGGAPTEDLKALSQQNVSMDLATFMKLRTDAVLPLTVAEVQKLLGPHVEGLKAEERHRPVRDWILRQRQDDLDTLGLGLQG
In plain terms, low OD450, meaning strictly below 0.2 OD450, gives y, and everything else gives n.

Here are 3 binders together with their reported answers.
• F7.44.20-H6 (scFv, not shown: small tags and cut ends, also called S009-F7.44.20 humanized antibody VH1a + VL2) scFv: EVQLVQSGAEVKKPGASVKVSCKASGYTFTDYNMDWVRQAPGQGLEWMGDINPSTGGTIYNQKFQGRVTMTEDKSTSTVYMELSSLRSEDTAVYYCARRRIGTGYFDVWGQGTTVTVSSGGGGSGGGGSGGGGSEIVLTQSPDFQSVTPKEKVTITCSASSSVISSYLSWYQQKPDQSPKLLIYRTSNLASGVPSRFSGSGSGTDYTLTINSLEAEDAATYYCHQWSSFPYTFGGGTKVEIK = n
• F7.44.20 (scFv, not shown: small tags and cut ends, also called S009-F7.44.20 (parental variable regions, in the humanized-antibody ELISA)) scFv: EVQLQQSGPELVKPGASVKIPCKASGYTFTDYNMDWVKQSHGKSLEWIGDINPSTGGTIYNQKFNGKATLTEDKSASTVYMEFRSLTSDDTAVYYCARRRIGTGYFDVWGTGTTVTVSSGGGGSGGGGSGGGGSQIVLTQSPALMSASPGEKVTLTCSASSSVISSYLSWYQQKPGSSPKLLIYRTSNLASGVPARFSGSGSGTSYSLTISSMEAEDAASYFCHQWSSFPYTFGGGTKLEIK = n
• F7.44.20-VL-VH (scFv, not shown: small tags and cut ends, also called S009-F7.44.20 parental variable regions, VL-VH order) scFv: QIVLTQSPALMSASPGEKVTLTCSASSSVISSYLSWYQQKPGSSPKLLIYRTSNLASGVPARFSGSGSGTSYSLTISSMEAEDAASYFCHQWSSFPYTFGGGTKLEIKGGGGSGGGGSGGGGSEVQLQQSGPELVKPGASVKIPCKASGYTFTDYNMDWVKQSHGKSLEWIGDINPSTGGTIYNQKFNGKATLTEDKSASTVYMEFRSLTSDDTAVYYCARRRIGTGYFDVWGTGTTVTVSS = y

Problem: State whether 0.2 OD450 exceeds OD450 recorded for F7.44.20-H4 (scFv, not shown: small tags and cut ends, also called S009-F7.44.20 humanized antibody VH1 + VL4) scFv: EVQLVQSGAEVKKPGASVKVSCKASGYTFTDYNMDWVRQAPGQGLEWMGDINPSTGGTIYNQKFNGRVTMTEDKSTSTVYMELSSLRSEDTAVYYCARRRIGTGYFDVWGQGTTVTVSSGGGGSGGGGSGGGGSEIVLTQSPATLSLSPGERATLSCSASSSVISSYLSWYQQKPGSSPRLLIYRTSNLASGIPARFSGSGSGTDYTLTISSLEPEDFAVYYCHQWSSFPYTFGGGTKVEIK .
Solution: y

Problem: State whether 0.2 OD450 exceeds OD450 recorded for F7.44.20-H13 (scFv, not shown: small tags and cut ends, also called S009-F7.44.20 humanized antibody VH2a + VL1) scFv: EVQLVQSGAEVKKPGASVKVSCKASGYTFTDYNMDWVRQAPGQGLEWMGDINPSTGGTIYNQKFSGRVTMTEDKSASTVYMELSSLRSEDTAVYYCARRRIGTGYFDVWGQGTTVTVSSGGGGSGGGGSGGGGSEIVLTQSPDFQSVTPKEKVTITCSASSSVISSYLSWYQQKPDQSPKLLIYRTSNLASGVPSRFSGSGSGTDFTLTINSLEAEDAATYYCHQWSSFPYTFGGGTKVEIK .
Solution: y

Problem: State whether 0.2 OD450 exceeds OD450 recorded for F7.44.20-H16 (scFv, not shown: small tags and cut ends, also called S009-F7.44.20 humanized antibody VH2a + VL4) scFv: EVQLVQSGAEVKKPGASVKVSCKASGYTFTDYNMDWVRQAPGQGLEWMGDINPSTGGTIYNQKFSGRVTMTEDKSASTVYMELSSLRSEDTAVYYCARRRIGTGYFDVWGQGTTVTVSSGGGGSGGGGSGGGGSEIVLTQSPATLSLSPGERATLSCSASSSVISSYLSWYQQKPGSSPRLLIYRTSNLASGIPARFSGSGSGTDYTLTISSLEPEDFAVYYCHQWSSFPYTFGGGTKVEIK .
Solution: y

Problem: State whether 0.2 OD450 exceeds OD450 recorded for F7.44.20-H10 (scFv, not shown: small tags and cut ends, also called S009-F7.44.20 humanized antibody VH2 + VL2) scFv: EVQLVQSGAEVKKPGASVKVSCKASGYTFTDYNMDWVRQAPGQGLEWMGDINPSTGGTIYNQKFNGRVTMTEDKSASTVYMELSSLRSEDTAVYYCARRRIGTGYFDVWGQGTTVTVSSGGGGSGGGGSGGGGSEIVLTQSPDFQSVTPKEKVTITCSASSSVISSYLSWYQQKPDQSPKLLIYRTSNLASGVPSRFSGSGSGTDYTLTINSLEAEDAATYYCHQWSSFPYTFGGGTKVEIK .
Solution: n
